System: Cortical neurone
testSummary: Neuroprotective activity against fibril amyloid beta (25 to 35)-induced cell death in Sprague-Dawley rat 5 days old neonatal primary cortical neurons assessed as increase in cell viability pretreated for 2 hrs followed by 10 uM fibril amyloid beta (25 to 35) addition measured after 48 hrs by MTT assay
Format: functional, cell-based
What EC50 was measured for each of the following?

Input: Report EC50 for CCOC(=O)/C=C/c1cccc(/C=C/c2cc(O)c(O)c(O)c2)c1 please.
Output: > 50 µM

Input: Let us now turn to COc1ccc(/C=C/c2cc(C=O)cc(OC)c2O)cc1OC
Output: > 50 µM

Input: And CCOC(=O)/C=C/c1ccc(OC)c(O)c1/C=C/c1ccc2c(c1)OCO2 ?
Output: > 50 µM

* * *

testSummary: Anti-inflammatory activity in Sprague-Dawley rat primary mixed glial cells assessed as inhibition of LPS-induced NO production at 50 uM pretreated for 2 hrs followed by LPS addition measured after 48 hrs by Griess assay (reference value: 100%)
Assay type: functional, Primary glial cell
Set-up: scale not given: the % may be the effect or the level left
I'd be grateful if you could share measured Activity for these entries.
Please provide the amount together with its unit, number first.

Input: State the recorded Activity for this entry: CCOC(=O)/C=C/c1cc2c(cc1/C=C/c1ccc(OC)cc1)OCO2
Output: 74.88%

Input: Try this compound too: CCOC(=O)/C=C/c1cc2c(cc1/C=C/c1cccc(OC)c1O)OCO2
Output: 75.33%

Input: Continue with COc1cccc(/C=C/c2ccc3c(c2)OCO3)c1OC
Output: 95.92%

Measured values drawn from ChEMBL document CHEMBL4043092 for this set.
